Recorded Ki, one value per entry.
tested.system: h-GABA-A α5β3γ2 (Homo sapiens (Human), UniProt P18507+P31644)
procedure.text: [3H]flumazenil competition binding assay, membranes of HEK293 cells expressing human GABAA receptors
condition.details: reference compounds, GABAA receptor α5β3γ2; read-out: Ki α5-human
Supply the numeric figure in nM, leaving out any unit text.

For orientation, consider the following solved cases.
{"columns": ["compound", "reading.unit", "recorded.result"],
 "data": [
  ["Cc1onc(-c2ccc(Cl)cn2)c1COc1ccc(C(=O)NC2CCOCC2)cn1 [RO-301, reference compound]", "nM", 0.2],
  ["Cc1ccc(-c2noc(C)c2COc2ccc(C(=O)NC3CCOCC3)cn2)cc1 [RO-251, reference compound]", "nM", 1],
  ["Cc1onc(-c2cccnc2)c1COc1ccc(C(=O)NC2CCOCC2)cn1 [RO-159, reference compound]", "nM", 28]
]}

Now for another entry.
Prompt: Write down the reported Ki of Cc1onc(-c2ccc(Cl)cn2)c1COc1ccc(C(=O)NC2CCOCC2)nn1 [RE-B, reference compound] , test system: h-GABA-A α5β3γ2 (Homo sapiens (Human), UniProt P18507+P31644).
Response: 0.4

----------
tested.system: h-GABA-A α5β3γ2 (Homo sapiens (Human), UniProt P18507+P31644)
procedure.text: Two-electrode voltage clamp electrophysiology in Xenopus oocytes expressing GABAA receptors, modulation of GABA EC20 current
Assay type: cell-based
condition.details: reference compounds, GABAA α5β3γ2 overexpressing oocytes, GABA EC20
Rule: Fold increase h-GABA-A α5β3γ2 oocyte under 0.9 gives -1, otherwise 1.

Please review the entries below; each comes with its answer.
{"columns": ["molecule", "category"],
 "data": [
  ["Cc1onc(-c2ccccn2)c1COc1ccc(C(=O)NC2CCOCC2)nn1 [RO-094, reference compound]", -1],
  ["Cc1onc(-c2ccc(Cl)cn2)c1COc1ccc(C(=O)NC2CCOCC2)nn1 [RE-B, reference compound]", 1]
]}

Prompt: Is reported Fold increase h-GABA-A α5β3γ2 oocyte greater than or equal to 0.9 here: Cc1ccc(-c2noc(C)c2COc2ccc(C(=O)NC3CCOCC3)cn2)cc1 [RO-251, reference compound]
Response: -1

Prompt: Please give the result for Cc1onc(-c2ccccn2)c1COc1ccc(C(=O)NC2CCOCC2)cn1 [RO-272, reference compound] too.
Response: -1

Prompt: Please give the result for Cc1onc(-c2ccc(Cl)cn2)c1COc1ccc(C(=O)NC2CCOCC2)cn1 [RO-301, reference compound] too.
Response: -1

Prompt: Please give the result for Cc1onc(-c2cccnc2)c1COc1ccc(C(=O)NC2CCOCC2)nn1 [RE-A, reference compound] too.
Response: 1

----------
tested.system: h-GABA-A α5β3γ2 (Homo sapiens (Human), UniProt P18507+P31644)
procedure.text: Two-electrode voltage clamp electrophysiology in Xenopus oocytes expressing GABAA receptors, modulation of GABA EC20 current
Format: cell-based
condition.details: Xenopus oocytes, GABA EC20, test compound at approx. 30 fold its Ki
True if Fold increase h-GABA-A α5β3γ2 oocyte is below 2. False if not; exact matches included in False.

Please review the entries below; each comes with its answer.
{"columns": ["compound", "category"],
 "data": [
  ["Cc1ccc(-c2noc(C)c2COc2ccc(C(=O)NC(C)(C)CCS(C)(=O)=O)nn2)cn1", "False"],
  ["Cc1ccc(-c2noc(C)c2COc2cnc(C(=O)NC3CCS(=O)(=O)CC3)cn2)cn1", "False"],
  ["Cc1ccc(-c2noc(C)c2COc2ccc(C(=O)NC(C)(C)C(F)(F)F)nn2)cn1", "True"],
  ["Cc1ccc(-c2noc(C)c2COc2ccc(C(=O)N3CCC(F)(F)CC3)nn2)cn1", "True"],
  ["Cc1ccc(-c2noc(C)c2COc2ccc(C(=O)N[C@H]3C[C@H](OC4CC4)C3)nn2)cn1", "True"]
]}

Prompt: In plain terms, does `Cc1onc(-c2ccc(C3CC3)nc2)c1COc1ccc(C(=O)NC2CCOCC2)cn1` come in under 2 for Fold increase h-GABA-A α5β3γ2 oocyte?
Response: False

Prompt: Please give the result for Cc1ccc(-c2noc(C)c2COc2ccc(C(=O)N[C@@H]3CC[C@@](O)(C(F)(F)F)C3)nn2)cn1 (single isomer, unassigned) too.
Response: True

Prompt: Please give the result for `Cc1ccc(-c2noc(C3CC3)c2COc2ccc(C(=O)NC3CCOCC3)cn2)cn1` too.
Response: False

----------
Recorded Efficacy (GABA) %, one value per entry.
tested.system: h-GABA-A α5β3γ2 (Homo sapiens (Human), UniProt P18507+P31644)
procedure.text: Two-electrode voltage clamp electrophysiology in Xenopus oocytes expressing GABAA receptors, modulation of GABA EC20 current
Format: cell-based
condition.details: % modulation of GABA EC20 = 100*(Fold increase−1), Xenopus oocytes
State the value, then name its unit.

For orientation, consider the following solved cases.
{"columns": ["molecular.string", "Efficacy (GABA) %"],
 "data": [
  ["COC1CN(C(=O)c2ccc(OCc3c(-c4ccc(C)nc4)noc3C)nn2)C1", "57%"],
  ["Cc1ccc(-c2noc(C)c2COc2ccc(C(=O)NCC3(C)COC3)nn2)cn1", "70%"],
  ["CO[C@H]1CC[C@H](NC(=O)c2ccc(OCc3c(-c4ccc(C)nc4)noc3C)nn2)CC1", "97%"]
]}

Prompt: Efficacy (GABA) % for `Cc1ccc(-c2noc(C)c2COc2cnc(C(=O)N[C@H]3CC[C@](C)(O)CC3)cn2)cn1` ?
Response: 101%

Prompt: Please give the result for `Cc1ccc(-c2noc(C)c2COc2ccc(C(=O)N3CC(F)C3)nn2)cn1` too.
Response: 62%

Prompt: Please give the result for `COc1ccc(-c2noc(C)c2COc2ccc(C(=O)NC(C)C)cn2)cn1` too.
Response: 46%

Prompt: Please give the result for `Cc1ccc(-c2noc(C)c2COc2cc3c(cn2)C(=O)N(C2CCSCC2)C3)cn1` too.
Response: 69%

Prompt: Please give the result for `Cc1ccc(-c2noc(C)c2COc2cnc(C(=O)NCCCC(F)(F)F)cn2)cn1` too.
Response: 139%

----------
tested.system: h-GABA-A α5β3γ2 (Homo sapiens (Human), UniProt P18507+P31644)
procedure.text: Two-electrode voltage clamp electrophysiology in Xenopus oocytes expressing GABAA receptors, modulation of GABA EC20 current
Assay type: cell-based
condition.details: % modulation of GABA EC20 = 100*(Fold increase−1), Xenopus oocytes
Recorded Efficacy (GABA) %, one value per entry.
Supply the numeric figure in %, leaving out any unit text.

For orientation, consider the following solved cases.
{"columns": ["compound", "Efficacy (GABA) % (%)"],
 "data": [
  ["Cc1ccc(-c2noc(C)c2COc2cnc(C(=O)NC(C)(C)CO)cn2)cn1", 45],
  ["Cc1ccc(-c2noc(C)c2COc2ccc(C(=O)N[C@H]3CCOC3)nn2)cn1", 80],
  ["CCO[C@H]1C[C@@H](NC(=O)c2ccc(OCc3c(-c4ccc(C)nc4)noc3C)nn2)C1", 72],
  ["Cc1ccc(-c2noc(C)c2COc2ccc(C(=O)N[C@H]3CC[C@](O)(C(F)(F)F)C3)nn2)cn1 (single isomer, unassigned)", 69],
  ["Cc1ccc(-c2noc(C)c2COc2ccc(C(=O)NC3CCOCC3)nn2)nn1", 64],
  ["CNC(=O)c1ccc(OCc2c(-c3ccc(C)nc3)noc2C)nn1", 63],
  ["Cc1ccc(-c2noc(C)c2COc2ccc(C(=O)N3CCC34COC4)nn2)cn1", 79],
  ["Cc1ccc(-c2noc(C)c2COc2cnc(C(=O)NC3CCOC3)cn2)cn1 (stereo in doubt)", 67],
  ["Cc1ccc(-c2noc(C)c2COc2ccc(C(=O)NC(C)(C)C)nn2)cn1", 104],
  ["Cc1ccc(-c2noc(C)c2COc2cnc(C(=O)NC3COC3)cn2)cn1", 11]
]}

Prompt: Efficacy (GABA) % for `Cc1ccc(-c2noc(C)c2COc2ccc(C(=O)NC3CCOCC3)cn2)cn1` ?
Response: 42

----------
tested.system: h-GABA-A α5β3γ2 (Homo sapiens (Human), UniProt P18507+P31644)
procedure.text: Two-electrode voltage clamp electrophysiology in Xenopus oocytes expressing GABAA receptors, modulation of GABA EC20 current
Assay type: cell-based
condition.details: Xenopus oocytes, GABA EC20, test compound at approx. 30 fold its Ki
Rule: Fold increase h-GABA-A α5β3γ2 oocyte under 2 gives not satisfied, otherwise satisfied.

Please review the entries below; each comes with its answer.
{"columns": ["molecule", "category"],
 "data": [
  ["Cc1ccc(-c2noc(C)c2COc2cnc(C(=O)NC3CC3)cn2)cn1 [Example 74]", "not satisfied"],
  ["Cc1ccc(-c2noc(C)c2COc2cc3c(cn2)C(=O)N(CC(C)C)C3)cn1 [Example 9]", "not satisfied"],
  ["Cc1ccc(-c2noc(C)c2COc2ccc(C(=O)N[C@@H]3CCOC[C@H]3O)nn2)cn1 [Example 28]", "not satisfied"],
  ["Cc1ccc(-c2noc(C)c2COc2ccc(C(=O)NC3(C)CCOC3)nn2)cn1 (racemic) [Example 75]", "not satisfied"],
  ["Cc1ccc(-c2noc(C)c2COc2ccc(C(=O)N[C@H]3C[C@@H](OC(F)F)C3)nn2)cn1 [Example 173]", "not satisfied"]
]}

Prompt: Is reported Fold increase h-GABA-A α5β3γ2 oocyte greater than or equal to 2 here: CCc1onc(-c2ccc(C)nc2)c1COc1ccc(C(=O)NC2CC2)nn1 [Example 123]
Response: satisfied

Prompt: Please give the result for Cc1onc(-c2ccc(Cl)nc2)c1COc1ccc(C(=O)NC2CC3(COC3)C2)nn1 [Example 162] too.
Response: not satisfied

Prompt: Please give the result for Cc1ccc(-c2noc(C)c2COc2ccc(C(=O)NC3CC4(COC4)C3)nn2)cn1 [Example 100] too.
Response: not satisfied

Prompt: Please give the result for Cc1ccc(-c2noc(C)c2COc2cnc(C(=O)NCC3CC3)cn2)cn1 [Example 95] too.
Response: not satisfied

Prompt: Please give the result for Cc1ccc(-c2noc(C3CC3)c2COc2ccc(C(=O)NC3CC4(COC4)C3)nn2)cn1 [Example 181] too.
Response: satisfied

Prompt: Please give the result for Cc1ccc(-c2noc(C)c2COc2ccc(C(=O)NC3(C)CC3)nn2)cn1 [Example 76] too.
Response: not satisfied

Prompt: Please give the result for Cc1ccc(-c2noc(C)c2COc2cnc(C(=O)NC3CC4(COC4)C3)cn2)cn1 [Example 101] too.
Response: not satisfied

Prompt: Please give the result for Cc1ccc(-c2noc(C)c2COc2ccc(C(=O)NCC(C)C)cn2)cn1 [Example 11] too.
Response: not satisfied

Prompt: Please give the result for CCC[C@@H](CO)N1Cc2cc(OCc3c(-c4ccc(C)nc4)noc3C)ncc2C1=O [Example 13] too.
Response: satisfied

Prompt: Please give the result for Cc1ccc(-c2noc(C)c2COc2ccc(C(=O)N[C@H]3CCCC[C@@H]3O)nn2)cn1 [Example 24] too.
Response: not satisfied
